These data points were gathered from patent US10617690B2.

assay.info: Pharmacokinetics (PK) test in mice
Assay type: in vivo, male DBA/1 mice
cond: male, DBA/1, mouse, plasma, oral
Listed here are compounds together with their documented bioavailability.
Your answer should be a plain number; it is taken to be in %.

compound	unit.string	measured
CN(c1ncnc2[nH]ccc12)N1CCCC(C(=O)NCC#N)C1 (stereo not drawn)	%	32.9

So for CN(c1ncnc2[nH]ccc12)N1CCC[C@@H](C(=O)NCC(F)(F)F)C1 (single isomer, unassigned) , the logged bioavailability turned out to be 27

So for CN(c1ncnc2[nH]ccc12)N1CCC[C@@H](C(=O)NCC#N)C1 (single isomer, unassigned) , the logged bioavailability turned out to be 50.7
